Values were extracted from paper PMC10447463.

- testDetails: Turbidity, derived count rate of scattered light
- Assay type: physicochemical
- conditionDescription: turbidity, Log10 of derived count rate of scattered light; Figure 3A source data
// reported Log10 Count Rate per item
I'd appreciate a reply containing only the number, no unit.

>>> val("KIKIQI")
2.035
>>> val("QCKIKIQINM")
3.979
>>> val("SISISRRI")
1.403
>>> val("IKVAVKIKIQINM")
3.686
>>> val("RGDCKFKFQF")
3.1264
>>> val("KYKYQY")
1.499

Q) Need Log10 Count Rate of CKIKIQI , thanks.
A) 3.386

Q) Need Log10 Count Rate of ILKNLSRSRKIKIQINMWQ , thanks.
A) 2.486

Q) Need Log10 Count Rate of MDQMDQMDQMDQMDQ , thanks.
A) 0.9823

Q) Need Log10 Count Rate of KIKIKIKIWW , thanks.
A) 3.975

Q) Need Log10 Count Rate of CKFKFQF , thanks.
A) 3.725

Q) Need Log10 Count Rate of KKFQKKFQ , thanks.
A) 1.867

Q) Need Log10 Count Rate of CKAKAQANMWQ , thanks.
A) 0.9526

Q) Need Log10 Count Rate of CKIKIQINM , thanks.
A) 3.626

Q) Need Log10 Count Rate of KIRGKFEKED , thanks.
A) 2.331
